Measured recombinant barcode read abundance (log10), listed per entry.
assay: recombinant barcode read abundance after kanamycin selection (control-corrected) (log10(CPM+1)); higher = more efficient recombination; sequences stand for … in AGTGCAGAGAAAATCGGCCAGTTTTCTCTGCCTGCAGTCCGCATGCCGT…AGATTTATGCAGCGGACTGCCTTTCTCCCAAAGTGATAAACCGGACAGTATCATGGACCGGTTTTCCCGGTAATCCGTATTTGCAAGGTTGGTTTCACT; site = the 11-nt target;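 note: IS621 recombinase and bridge RNA in Escherichia coli cells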
# output: bare number, no unit

[
  {
    "Seq String": "ATATGGACTTGGGTTCTAACCTGTTGCTA (site ATACGGACTTA)",
    "Value Measured": 1.34
  },
  {
    "Seq String": "TCCAGGGCTTGGGTTCTAACCTGTTGCCT (site TCCAGGGCTAG)",
    "Value Measured": 0.185
  },
  {
    "Seq String": "AGCCACACTTGGGTTCTAACCTGTTGCCT (site AGCCACGCTAG)",
    "Value Measured": 0.374
  },
  {
    "Seq String": "AGTTCGACTTGGGTTCTAACCTGTTGCCT (site ACTTCGACTAG)",
    "Value Measured": 0.0163
  },
  {
    "Seq String": "ACGTGTCCTTGGGTTCTAACCTGTTGCGG (site GGAGAGACTAT)",
    "Value Measured": 0.242
  }
]

Q) What does the data say about its recombinant barcode read abundance (log10)? Entry: AACTTATCTTGGGTTCTAACCTGTTGCCT (site AACTTATCTAG)
A) 0.812

Q) What does the data say about its recombinant barcode read abundance (log10)? Entry: TTACCTACTTGGGTTCTAACCTGTTGCCT (site TTACCAACTAG)
A) 0.237
